Recorded IC50, one value per entry.
Measured on: P2Y12 receptor (Homo sapiens, UniProt Q9H244)
Construct: endogenous in cells
Sequence (Q9H244 whole entry): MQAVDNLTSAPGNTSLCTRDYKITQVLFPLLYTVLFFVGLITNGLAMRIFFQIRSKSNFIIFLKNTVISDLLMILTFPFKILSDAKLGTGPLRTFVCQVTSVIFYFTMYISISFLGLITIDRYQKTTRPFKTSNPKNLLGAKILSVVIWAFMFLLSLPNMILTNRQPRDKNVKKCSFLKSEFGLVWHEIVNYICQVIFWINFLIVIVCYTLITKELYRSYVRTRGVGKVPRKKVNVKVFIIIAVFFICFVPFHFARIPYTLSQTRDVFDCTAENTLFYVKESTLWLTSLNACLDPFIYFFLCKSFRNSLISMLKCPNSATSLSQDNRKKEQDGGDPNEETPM
Assay explanation: platelet ADP receptor binding assay (ARB): inhibition of [3H]2-MeS-ADP binding to platelets
Run parameters: [3H]2-MeS-ADP binding to apyrase-washed human platelets
Parameter: IC50

compound=CNc1cc2c(cc1F)C(=O)N(c1ccc(C(=O)N[C@@H](c3nnn[nH]3)c3ccc(Cl)s3)cc1)CO2 measured_on="P2Y12 receptor (Homo sapiens, UniProt Q9H244)" measured_result="< 50 nM"
compound="CNc1cc2c(cc1F)C(=O)N(c1ccc(C(=O)NC(C(=O)OC)c3ccc(Cl)s3)cc1)CO2 (stereo not shown)" measured_on="P2Y12 receptor (Homo sapiens, UniProt Q9H244)" measured_result="50 to 500 nM"
compound="CNc1cc2ccn(-c3ccc(CNC(C(=O)O)c4ccc(Cl)s4)cc3)c(=O)c2cc1F (stereo not shown)" measured_on="P2Y12 receptor (Homo sapiens, UniProt Q9H244)" measured_result="50 to 500 nM"
compound="O=C(NC(C(=O)O)c1cccs1)c1ccc(-n2ccc3ccccc3c2=O)cc1 (stereo not shown)" measured_on="P2Y12 receptor (Homo sapiens, UniProt Q9H244)" measured_result="> 500 nM"
compound="N#Cc1cn(-c2ccc(C(=O)NC(C(=O)O)c3ccc(Cl)s3)cc2)c(=O)c2ccccc12 (stereo not shown)" measured_on="P2Y12 receptor (Homo sapiens, UniProt Q9H244)" measured_result="> 500 nM"
compound="CNc1cc2cnn(-c3ccc(C(=O)NC(C(=O)O)c4ccc(Cl)s4)cc3)c(=O)c2cc1F (stereo not shown)" measured_on="P2Y12 receptor (Homo sapiens, UniProt Q9H244)" measured_result="50 to 500 nM"
compound="O=C(NC(C(=O)O)c1cccs1)c1ccc(-n2c(=O)[nH]c3cc(NCc4ccc(F)cc4)ccc3c2=O)cc1 (stereo not shown)" measured_on="P2Y12 receptor (Homo sapiens, UniProt Q9H244)" measured_result="50 to 500 nM"
compound=CNc1cc2c(cc1F)C(=O)N(c1ccc(C(=O)N[C@H](C(=O)O)c3ccccc3)cc1)CO2 measured_on="P2Y12 receptor (Homo sapiens, UniProt Q9H244)" measured_result="50 to 500 nM"
compound="COc1cc2ccn(-c3ccc(C(=O)NC(C(=O)O)c4ccc(Cl)s4)cc3)c(=O)c2cc1F (stereo not shown)" measured_on="P2Y12 receptor (Homo sapiens, UniProt Q9H244)" measured_result="> 500 nM"
compound=CNc1cc2c(cc1F)C(=O)N(c1ccc(C(=O)N[C@@H](Cc3ccccc3)C(=O)O)cc1)CO2 measured_on="P2Y12 receptor (Homo sapiens, UniProt Q9H244)" measured_result="50 to 500 nM"
compound="O=C(NC(C(=O)O)c1ccc(Cl)s1)c1ccc(-n2ccc3ccccc3c2=O)cc1 (stereo not shown)" measured_on="P2Y12 receptor (Homo sapiens, UniProt Q9H244)" measured_result="> 500 nM"
compound="O=C(NC(C(=O)O)c1ccc(Cl)s1)c1ccc(N2COc3ccccc3C2=O)cc1 (stereo not shown)" measured_on="P2Y12 receptor (Homo sapiens, UniProt Q9H244)" measured_result="> 500 nM"
compound="CNc1cc2c(=O)n(-c3ccc(C(=O)NC(C(=O)O)c4ccc(Cl)s4)cc3)c(=O)[nH]c2cc1F (stereo not shown)" measured_on="P2Y12 receptor (Homo sapiens, UniProt Q9H244)" measured_result="50 to 500 nM"
compound="CNc1cc2[nH]c(=O)n(-c3ccc(C(=O)NC(c4cccc(F)c4)c4nnn[nH]4)cc3)c(=O)c2cc1F (stereo not shown)" measured_on="P2Y12 receptor (Homo sapiens, UniProt Q9H244)" measured_result="> 500 nM"
compound="CNc1cc2c(cc1F)C(=O)N(c1ccc(CNC(CC(=O)O)c3ccc(Cl)s3)cc1)CO2 (stereo not shown)" measured_on="P2Y12 receptor (Homo sapiens, UniProt Q9H244)" measured_result="50 to 500 nM"
compound="CNc1cc2c(cc1F)C(=O)N(c1ccc(C(=O)NC(C(=O)O)c3cccc(Cl)c3)cc1)CO2 (stereo not shown)" measured_on="P2Y12 receptor (Homo sapiens, UniProt Q9H244)" measured_result="50 to 500 nM"
